- tested-target: CNG channel (bovine retinal rod cGMP-gated channel alpha subunit) (Bos taurus)
- Sequence (Q00194 whole entry): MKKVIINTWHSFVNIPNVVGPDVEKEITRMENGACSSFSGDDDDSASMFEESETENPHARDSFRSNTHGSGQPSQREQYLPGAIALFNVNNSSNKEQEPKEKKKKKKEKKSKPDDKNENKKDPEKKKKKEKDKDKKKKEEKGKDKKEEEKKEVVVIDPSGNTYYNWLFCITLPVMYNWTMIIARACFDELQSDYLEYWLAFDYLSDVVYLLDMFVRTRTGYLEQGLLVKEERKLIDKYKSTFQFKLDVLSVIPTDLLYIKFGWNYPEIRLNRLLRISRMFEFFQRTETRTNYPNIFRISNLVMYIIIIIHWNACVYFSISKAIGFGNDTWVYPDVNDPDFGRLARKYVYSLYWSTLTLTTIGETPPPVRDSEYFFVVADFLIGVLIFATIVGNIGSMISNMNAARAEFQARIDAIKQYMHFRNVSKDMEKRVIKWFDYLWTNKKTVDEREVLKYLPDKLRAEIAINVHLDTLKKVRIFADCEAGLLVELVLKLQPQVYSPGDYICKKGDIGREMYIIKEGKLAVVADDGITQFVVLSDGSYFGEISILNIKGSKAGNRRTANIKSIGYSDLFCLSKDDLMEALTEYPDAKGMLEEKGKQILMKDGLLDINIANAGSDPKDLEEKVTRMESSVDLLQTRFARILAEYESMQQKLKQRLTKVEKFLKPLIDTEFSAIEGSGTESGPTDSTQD
- method-description: outside-out patch clamp, macroscopic current block
Measured IC50 of individual entries
# number then unit; no other words

| compound | IC50 |
| --- | --- |
| NCCCNCCCCNCCCN [spermine] | 3.1 µM |
| NCCCCN [putrescine] | 1400 µM |

Please turn your attention to the following entry.
Q: Endpoint output: IC50 of NCCCCNCCCN [spermidine] . Value?
A: 50 µM

Reference for the values: paper PMC2222994
